biological target: Mu-type opioid receptor (Rattus norvegicus)
Sequence (P33535 whole entry): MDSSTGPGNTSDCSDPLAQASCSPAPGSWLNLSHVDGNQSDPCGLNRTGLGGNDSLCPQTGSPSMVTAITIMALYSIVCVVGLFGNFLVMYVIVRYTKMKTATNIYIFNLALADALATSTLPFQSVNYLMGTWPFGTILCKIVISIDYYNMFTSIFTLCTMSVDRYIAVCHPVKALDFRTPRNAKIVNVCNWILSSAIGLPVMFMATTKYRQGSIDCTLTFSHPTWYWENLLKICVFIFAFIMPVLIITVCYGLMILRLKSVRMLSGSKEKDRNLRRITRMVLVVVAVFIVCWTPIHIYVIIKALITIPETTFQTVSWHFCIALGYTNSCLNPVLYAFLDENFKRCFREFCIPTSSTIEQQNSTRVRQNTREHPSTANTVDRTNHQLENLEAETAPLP
Measured Parameter: Ki (nM)
One number for each entry, in nM.

[
  {
    "Smiles Text": "COc1ccc(NC(=O)C2=C(O)[C@@H]3Oc4c(O)ccc5c4[C@@]34CCN(CC3CC3)[C@H](C5)[C@]4(O)C2)cn1",
    "System Name": "Mu-type opioid receptor (Rattus norvegicus)",
    "Ki [nM]": 2.29
  }
]

Please turn your attention to the following entry.
Record CC(C)NC(=O)C1=C(NS(=O)(=O)c2ccc(Cl)cc2)[C@@H]2Oc3c(O)ccc4c3[C@@]23CCN(CC2CC2)[C@H](C4)[C@]3(O)C1 : what is its Ki with Mu-type opioid receptor (Rattus norvegicus)?
11

Sourced from ChEMBL document CHEMBL3639083
